Experiment: Kinetic solubility in biorelevant media (FaSSIF, FeSSIF) with and without HPMC E5
Type: physicochemical
Details: aqueous with cosolvent or surfactant or cyclodextrin, thermodynamic from solid; FaSSIF pH 6.5, HPMC E5 1.39 mg/mL, 37° C., as μg rilematovir/mL; read-out: kinetic solubility, concentration at 60 minutes
property-measured: solubility kinetic at 60 min

**Q:** Input CS(=O)(=O)CCCn1c(Cn2c(=O)n(CC(F)(F)F)c3ccncc32)cc2cc(Cl)ccc21.O=C(O)C(O)C(O)C(=O)O [hemi (L)-tartrate form of rilematovir] , output reported solubility kinetic at 60 min.
**A:** 93.1 µg/mL

---

Assay: Kinetic solubility in biorelevant media (FaSSIF, FeSSIF) with and without HPMC E5
Format: physicochemical
Conditions: thermodynamic from solid; FaSSIF pH 6.5, no HPMC E5, 37° C., as μg rilematovir/mL; read-out: kinetic solubility, concentration at 60 minutes
Some compounds, each annotated with its measured solubility kinetic at 60 min.
# value in µg/mL; strip the unit string

**Q:** Respond only with solubility kinetic at 60 min recorded for CS(=O)(=O)CCCn1c(Cn2c(=O)n(CC(F)(F)F)c3ccncc32)cc2cc(Cl)ccc21.O=C(O)C(O)C(O)C(=O)O [hemi (L)-tartrate form of rilematovir]
**A:** 3.4

**Q:** Write down solubility kinetic at 60 min measured for item CS(=O)(=O)CCCn1c(Cn2c(=O)n(CC(F)(F)F)c3ccncc32)cc2cc(Cl)ccc21 [rilematovir]
**A:** 1.1

---

Assay: Kinetic solubility in biorelevant media (FaSSIF, FeSSIF) with and without HPMC E5
Type: physicochemical
Conditions: FaSSIF with HPMC E5, aqueous with cosolvent or surfactant or cyclodextrin, thermodynamic from solid; FaSSIF pH 6.5, HPMC E5 1.39 mg/mL, 37° C., as μg rilematovir/mL; read-out: kinetic solubility, concentration at 120 minutes
Protocol: The kinetic solubility of rilematovir and the hemi (L)-tartrate form of rilematovir in different biorelevant medium (FaSSIF and FeSSIF) in the presence or absence of HPMC E5 was analysed. […] The media were stirred at 150 rpm at a temperature of 37° C. […] The concentration of rilematovir, or the hemi (L)-tartrate form of rilematovir, in solution was determined using UPLC-UV.
property-measured: solubility kinetic at 120 min

**Q:** Provide solubility kinetic at 120 min value for the following compound: CS(=O)(=O)CCCn1c(Cn2c(=O)n(CC(F)(F)F)c3ccncc32)cc2cc(Cl)ccc21
**A:** 1.5 µg/mL

---

Test: Equilibrium (thermodynamic) solubility in fed state human intestinal fluids
Format: physicochemical
Details: human, 37 °C, plasma or biological fluid, thermodynamic from solid, Fed HR pool human intestinal fluids, 37° C., 24 hours, single determinations; read-out: solubility Conc
property-measured: solubility at 24 h (µg/mL)
Numeric only. Scale: µg/mL

**Q:** Please give the documented solubility at 24 h of CS(=O)(=O)CCCn1c(Cn2c(=O)n(CC(F)(F)F)c3ccncc32)cc2cc(Cl)ccc21.O=C(O)C(O)C(O)C(=O)O [hemi (L)-tartrate form of rilematovir]
**A:** 102

---

Assay: Kinetic solubility in biorelevant media (FaSSIF, FeSSIF) with and without HPMC E5
Format: physicochemical
Conditions: FaSSIF with HPMC E5, aqueous with cosolvent or surfactant or cyclodextrin, thermodynamic from solid; FaSSIF pH 6.5, HPMC E5 1.39 mg/mL, 37° C., as μg rilematovir/mL; read-out: kinetic solubility, concentration at 60 minutes
property-measured: solubility kinetic at 60 min (µg/mL)
Give the quantity in µg/mL, number only.

**Q:** Determine from records and report solubility kinetic at 60 min for CS(=O)(=O)CCCn1c(Cn2c(=O)n(CC(F)(F)F)c3ccncc32)cc2cc(Cl)ccc21
**A:** 1.3

---

Test: Kinetic solubility in biorelevant media (FaSSIF, FeSSIF) with and without HPMC E5
Assay type: physicochemical
Settings: aqueous with cosolvent or surfactant or cyclodextrin, thermodynamic from solid; FaSSIF pH 6.5, HPMC E5 1.39 mg/mL, 37° C., as μg rilematovir/mL; read-out: kinetic solubility, concentration at 120 minutes
property-measured: solubility kinetic at 120 min

**Q:** Supply solubility kinetic at 120 min value. Item: CS(=O)(=O)CCCn1c(Cn2c(=O)n(CC(F)(F)F)c3ccncc32)cc2cc(Cl)ccc21.O=C(O)C(O)C(O)C(=O)O [hemi (L)-tartrate form of rilematovir]
**A:** 75.9 µg/mL

---

Assay: Kinetic solubility in biorelevant media (FaSSIF, FeSSIF) with and without HPMC E5
Format: physicochemical
Settings: FaSSIF with HPMC E5, aqueous with cosolvent or surfactant or cyclodextrin, thermodynamic from solid; FaSSIF pH 6.5, HPMC E5 1.39 mg/mL, 37° C., as μg rilematovir/mL; read-out: kinetic solubility, concentration at 30 minutes
property-measured: solubility kinetic at 30 min (µg/mL)
Only the number, expressed in µg/mL, is required.

**Q:** Quick one: give measured solubility kinetic at 30 min for CS(=O)(=O)CCCn1c(Cn2c(=O)n(CC(F)(F)F)c3ccncc32)cc2cc(Cl)ccc21
**A:** 1.2

---

solubility kinetic at 60 min values by entry
Test: Kinetic solubility in biorelevant media (FaSSIF, FeSSIF) with and without HPMC E5
Type: physicochemical
Settings: thermodynamic from solid; FeSSIF pH 5.0, no HPMC E5, 37° C., as μg rilematovir/mL; read-out: kinetic solubility, concentration at 60 minutes
Quick reminder: number only, in µg/mL, skip the unit.

**Q:** Tell me its solubility kinetic at 60 min given CS(=O)(=O)CCCn1c(Cn2c(=O)n(CC(F)(F)F)c3ccncc32)cc2cc(Cl)ccc21 as the entry.
**A:** 13.2

Continue with the next molecule.
**Q:** In one line, give reported solubility kinetic at 60 min of the entry CS(=O)(=O)CCCn1c(Cn2c(=O)n(CC(F)(F)F)c3ccncc32)cc2cc(Cl)ccc21.O=C(O)C(O)C(O)C(=O)O [hemi (L)-tartrate form of rilematovir] .
**A:** 67.1

---

Measured solubility kinetic at 30 min, listed per entry for reference.
Test: Kinetic solubility in biorelevant media (FaSSIF, FeSSIF) with and without HPMC E5
Format: physicochemical
Settings: thermodynamic from solid; FeSSIF pH 5.0, no HPMC E5, 37° C., as μg rilematovir/mL; read-out: kinetic solubility, concentration at 30 minutes
Express the result in µg/mL but write the number alone.

**Q:** Please report solubility kinetic at 30 min for the following compound: CS(=O)(=O)CCCn1c(Cn2c(=O)n(CC(F)(F)F)c3ccncc32)cc2cc(Cl)ccc21.O=C(O)C(O)C(O)C(=O)O [hemi (L)-tartrate form of rilematovir]
**A:** 82.8

Others:
**Q:** # return recorded solubility kinetic at 30 min for entry CS(=O)(=O)CCCn1c(Cn2c(=O)n(CC(F)(F)F)c3ccncc32)cc2cc(Cl)ccc21
**A:** 12.5

---

Assay: Kinetic solubility in biorelevant media (FaSSIF, FeSSIF) with and without HPMC E5
Assay type: physicochemical
Conditions: aqueous with cosolvent or surfactant or cyclodextrin, thermodynamic from solid; FeSSIF pH 5.0, HPMC E5 1.39 mg/mL, 37° C., as μg rilematovir/mL; read-out: kinetic solubility, concentration at 30 minutes
property-measured: solubility kinetic at 30 min (µg/mL)
Give your result in µg/mL as a bare value.

**Q:** Query solubility kinetic at 30 min for CS(=O)(=O)CCCn1c(Cn2c(=O)n(CC(F)(F)F)c3ccncc32)cc2cc(Cl)ccc21.O=C(O)C(O)C(O)C(=O)O [hemi (L)-tartrate form of rilematovir]
**A:** 1010

---

Test: Kinetic solubility in biorelevant media (FaSSIF, FeSSIF) with and without HPMC E5
Format: physicochemical
Settings: FeSSIF with HPMC E5, aqueous with cosolvent or surfactant or cyclodextrin, thermodynamic from solid; FeSSIF pH 5.0, HPMC E5 1.39 mg/mL, 37° C., as μg rilematovir/mL; read-out: kinetic solubility, concentration at 60 minutes
property-measured: solubility kinetic at 60 min (µg/mL)
Express it in µg/mL; write the number only.

**Q:** Read off the recorded solubility kinetic at 60 min for CS(=O)(=O)CCCn1c(Cn2c(=O)n(CC(F)(F)F)c3ccncc32)cc2cc(Cl)ccc21 [rilematovir]
**A:** 13.4
